experiment: VP16 counterscreen qHTS for inhibitors of ROR gamma transcriptional activity; settings: Drosophila S2 Gal4-VP16 UAS-luciferase, luminescence, 20 h; series mostly up to 53.6 µM;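 further: Gal4-VP16 expression switched on by copper sulfate through the metallothionein promoter; nearly all actives have a fitted effect of over 50% in size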
Among all 310,000 compounds or so, about 11,000 (3.5%) were called active. Roughly 8% stayed inconclusive and do not appear here. The call rests on the fitted dose curve; in most records, active means well fitted inhibition curve with a large enough effect; inconclusive means small, poorly fitted or top-dose-only effect, or effect the other way; inactive means flat fitted curve, though single readings scatter. Shown is part of a subset that was picked to be rich in actives.
Write down the outcome that applies. Available outcomes: active, inactive

[
  {
    "Query smiles": "CCC(=O)Nc1nc2ccccc2n1Cc1ccccc1C",
    "Assigned label": "inactive"
  },
  {
    "Query smiles": "COc1ccccc1/C=C/C(=O)NC(=S)N1CCOCC1",
    "Assigned label": "active"
  },
  {
    "Query smiles": "O=C(N/N=C/c1cc(Cl)cc([N+](=O)[O-])c1O)C(O)(c1ccccc1)c1ccccc1",
    "Assigned label": "active"
  },
  {
    "Query smiles": "CCn1c(CC(=O)Nc2ccccc2C)nnc1SCC(=O)NC1=NCCS1",
    "Assigned label": "inactive"
  }
]

Switching to the query record.
Check the results log: what was the call for O=C(/C=C/c1ccco1)NC(=S)N1CCCCC1 ? active
